Collected activity, negative = inhibition values appear next to each entry.
Biological target: Cytochrome P450 2C19 (Homo sapiens) (UniProt P33261)
Sequence (P33261 whole entry, looked up): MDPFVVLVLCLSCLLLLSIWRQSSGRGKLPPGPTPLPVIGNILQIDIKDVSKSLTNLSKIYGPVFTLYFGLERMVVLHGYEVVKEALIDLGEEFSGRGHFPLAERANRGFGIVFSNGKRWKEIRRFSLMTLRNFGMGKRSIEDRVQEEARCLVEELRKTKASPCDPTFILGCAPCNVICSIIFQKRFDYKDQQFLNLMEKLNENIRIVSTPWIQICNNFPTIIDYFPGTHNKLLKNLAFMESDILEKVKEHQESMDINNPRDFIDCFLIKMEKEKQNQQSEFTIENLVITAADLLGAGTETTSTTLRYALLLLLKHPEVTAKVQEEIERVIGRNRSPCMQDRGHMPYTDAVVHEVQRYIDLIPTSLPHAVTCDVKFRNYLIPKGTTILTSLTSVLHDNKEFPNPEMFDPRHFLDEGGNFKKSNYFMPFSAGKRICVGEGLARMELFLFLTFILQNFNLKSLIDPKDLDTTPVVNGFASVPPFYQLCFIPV
Assay: Cytochrome panel assay with activity outcomes; note: % is set by controls: 0 for no effect and ±100 for the full control effect
Conditions: recombinant CYP, pro-luciferin dealkylation, luminescence, p450-cyp2c19; series mostly up to 57.1 µM
In all, about 16,000 compounds went through this assay and about 5,800 (36%) were called active. Roughly 23% stayed inconclusive and do not appear here. This is one part of the list.

{"columns": ["chemical smiles", "activity, negative = inhibition"],
 "data": [
  ["COc1cccc([C@@H]2Oc3ccc(OC)cc3/C(=N/O[C@@H](C)c3cn([C@H]4COC[C@H]4O)nn3)[C@@H]2O)c1", "-35.4% [at 11.4 µM] (inactive)"],
  ["C[C@@H](N1CCOCC1)[C@@](O)(c1ccccc1)c1ccccn1", "5.67% [at 11.4 µM] (inactive)"],
  ["N[C@@H](Cc1ncccn1)C(=O)O", "1.66% [at 11.4 µM] (inactive)"],
  ["Cc1ccc(S(=O)(=O)N[C@@H]2COC(=O)C/C=C\\[C@H](C)COC(=O)N[C@@H](C)C(=O)C/C=C\\[C@H]2C)cc1", "-6.82% [at 11.4 µM] (inactive)"],
  ["Nc1nc2c(c(=O)[nH]1)N[C@H](CCNc1ccc(C(=O)O)cc1)CN2", "0.2% [at 11.4 µM] (inactive)"],
  ["CN(C)CC(CN(C)C)c1ccccn1", "4.36% [at 11.4 µM] (inactive)"],
  ["O=C(O)C1(Nc2ccc(Cl)cc2)CCCC1", "25.8% [at 11.4 µM] (inactive)"],
  ["CCOC(=O)[C@]1(CC(=O)O)CCCC1=O", "5.42% [at 11.4 µM] (inactive)"],
  ["Cn1c(=O)c2[nH]c([C@@H]3CC(=O)C[C@H](c4nc5c([nH]4)c(=O)n(C)c(=O)n5C)N3)nc2n(C)c1=O", "1.66% [at 11.4 µM] (inactive)"],
  ["CO[C@H]1COC(=O)[C@H](C)NC(=O)C/C=C\\[C@@H](C)[C@H](OC)COC(=O)[C@@H](OCc2ccccc2)/C=C\\[C@@H]1C", "1.79% [at 11.4 µM] (inactive)"],
  ["O=[N+]([O-])c1ccc2ncccc2c1CCc1c([N+](=O)[O-])ccc2ncccc12", "39.5% [at 11.4 µM] (inactive)"],
  ["C=CC[C@@H]1C=C[C@H](O/N=C(\\C)CCN2CCc3nc(CC)c(CC)cc3C2)[C@H](CO)O1", "-14% [at 11.4 µM] (inactive)"],
  ["C[C@H](O/N=C1/[C@H]2O[C@@H]2[C@@H](O)[C@H]2[C@H]1CCn1c(=O)n(-c3ccccc3)c(=O)n12)c1cn([C@H]2COC[C@H]2O)nn1", "42.5% [at 11.4 µM] (inactive)"],
  ["[O-][N+]1(CC[N+]2([O-])CCCCC2)CCCCC1", "25.1% [at 11.4 µM] (inactive)"],
  ["Cc1ccc(S(=O)(=O)Nc2ccccc2C(=O)c2ccc(C)c(C)c2)cc1", "30.1% [at 11.4 µM] (inactive)"],
  ["CC(C)=CCC/C(C)=C/CO/N=C1/C[C@@H](O)[C@@H](O)[C@@H]2[C@H]3C(=O)N(c4ccc(F)cc4F)C(=O)[C@@H]3CC[C@@H]12", "-9.14% [at 11.4 µM] (inactive)"],
  ["Nc1nc2c(c(=O)[nH]1)CN(CCCN1CCOCC1)CN2", "24.4% [at 11.4 µM] (inactive)"],
  ["S=C(Nc1ccc2c(c1)Cc1ccccc1-2)Nc1ccc2c(c1)Cc1ccccc1-2", "-8.36% [at 11.4 µM] (inactive)"],
  ["CC1=NN(c2ccc(S(=O)(=O)O)cc2)C(=O)/C1=C\\c1ccc(Cl)cc1", "-11.1% [at 11.4 µM] (inactive)"],
  ["CO[C@@H]1/C=C\\CC(=O)N[C@@H](C)C(=O)OC[C@H](NS(=O)(=O)c2ccc(C)cc2)[C@H](C)/C=C\\CC(=O)OC[C@H]1C", "-0.432% [at 11.4 µM] (inactive)"],
  ["CN(C)c1ccc(C(c2ccc(N(C)C)cc2)c2ccc([N+](=O)[O-])cc2)cc1", "-36.9% [at 11.4 µM] (inactive)"],
  ["CN(C)CCOC(=O)c1ccc(N)cc1", "-21.2% [at 11.4 µM] (inactive)"],
  ["Cc1cc(C)c(O)c(Cc2cccc(Cc3cc(C)cc(C)c3O)c2O)c1", "8% [at 11.4 µM] (inactive)"],
  ["CCCCN(c1ccccc1)c1ncnc2c1cnn2C", "-9.3% [at 11.4 µM] (inactive)"],
  ["CCOC(=O)c1cnc(N(C)C)nc1SC(=N)N", "7.18% [at 11.4 µM] (inactive)"],
  ["COc1cccc2c1C(=O)c1c(O)c3c(c(O)c1C2=O)C[C@@](O)(C(=O)CO)C[C@H]3O[C@H]1C[C@@H](N)[C@H](O)[C@@H](C)O1.[W]", "9.1% [at 11.4 µM] (inactive)"],
  ["O=S(=O)(O)c1cc(N=Nc2cccc3ccccc23)c(O)c2ncccc12", "-29.3% [at 11.4 µM] (inactive)"],
  ["Nc1nc2c(ncn2[C@@H]2C=C[C@@H](CO)C2)c(=O)[nH]1", "-3.48% [at 11.4 µM] (inactive)"],
  ["O=S(=O)(O)CCCc1cccc2ccccc12", "21.3% [at 11.4 µM] (inactive)"],
  ["O=C(O)/C=C\\C(=O)Nc1ccc2c(c1)-c1ccccc1C2", "-24.1% [at 11.4 µM] (inactive)"],
  ["C[C@@](N)(Cc1c[nH]c2ccccc12)C(=O)O", "34.7% [at 11.4 µM] (inactive)"],
  ["CC(C)=NOC[C@@H](O)COCc1ccco1", "-10.6% [at 11.4 µM] (inactive)"],
  ["O=C1CCC(c2ccccc2)(c2ccccc2)CC1", "13.2% [at 11.4 µM] (inactive)"],
  ["C[C@@H]1NC(=O)C/C=C\\[C@@H](C)[C@@H]2C=C[C@H](O)[C@@H](COC(=O)[C@H](C)NC(=O)C/C=C\\[C@@H](C)[C@@H]3C=C[C@H](O)[C@@H](COC1=O)O3)O2", "-11.5% [at 11.4 µM] (inactive)"],
  ["CC1=NCC[N@@+]1(CCc1ccccc1)Cc1ccccc1", "32.9% [at 11.4 µM] (inactive)"],
  ["COc1cccc([C@H]2Oc3ccc(OC)cc3/C(=N\\O[C@@H](C)c3cn([C@H](CO)Cc4ccccc4)nn3)[C@@H]2O)c1", "-44.2% [at 11.4 µM] (inactive)"],
  ["O=S(=O)(c1cnccc1N1CCN(CCO)CC1)N1CCCC1", "33.1% [at 11.4 µM] (inactive)"],
  ["CC(=O)Nc1nc(NC(C)=O)c2[nH]c(CO)nc2n1", "4.22% [at 11.4 µM] (inactive)"],
  ["C/C(=N/O)[C@@H]1C[C@H](CC(=O)O)C1(C)C", "23% [at 11.4 µM] (inactive)"]
]}
